Tested on: HT-29
Test: Growth inhibition of human HT-29 cells overexpressing VDR gene after 72 hrs by MTS assay
Format: functional
Details: HT-29, 72 h
// GI50 lookup, one value per entry
readout.name: GI50

{"columns": ["compound", "readout.name", "val"],
 "data": [
  ["C=C1CC[C@H](O)C/C1=C\\C=C1/CCC[C@]2(C)[C@@H]([C@H](C)CO)CC[C@@H]12", "GI50", "> 100 µM"],
  ["C=C1CC[C@H](O)C/C1=C/C=C1\\CCC[C@]2(C)[C@@H]([C@H](C)/C=C/[C@H](C)C(C)C)CC[C@@H]12 [ERGOCALCIFEROL]", "GI50", "> 100 µM"],
  ["CC(C)CCC[C@@H](C)[C@H]1CC[C@H]2C(CCC3C[C@@H](O)CCC3C)CCC[C@]12C (stereo partly specified)", "GI50", "> 100 µM"],
  ["C=C1CC[C@H](O)C/C1=C/C=C1\\CCC[C@]2(C)[C@@H]([C@H](C)CCCC(C)C)CC[C@@H]12 [CHOLECALCIFEROL]", "GI50", "68.5 µM"],
  ["C=C1CC[C@H](O)C/C1=C/C(O)C1(O)CCC[C@]2(C)[C@@H]([C@H](C)CCCC(C)C)CC[C@@H]12 (stereo partly specified)", "GI50", "> 100 µM"],
  ["C=C1CC[C@H](O)C/C1=C/CO", "GI50", "> 100 µM"]
]}
